Just for reference, patent US6376670B1 is where these values come from.

test system: S. aureus (ATCC 33592); assay: MIC against S. aureus strain; format: cell-based; conditions: Staphylococcus aureus, ATCC33592
measurement.name: MIC

Worked set:
molecule	tested.system	MIC
NCCNC(=O)c1cc(-c2c[nH]c3ccc(Br)cc23)nc2cc(Cl)c(C#CCN3CCCCC3)cc12 [compound 4]	S. aureus (ATCC 33592)	< 7 µg/mL
COc1ccc2nc(-c3c[nH]c4ccc(Cl)cc34)ccc2c1 [compound 5]	S. aureus (ATCC 33592)	< 7 µg/mL

Kindly consider the entry below.
For Brc1ccc2[nH]cc(-c3nc4ccc(C#CCN5CCCCC5)cc4c4c3CCO4)c2c1 [compound 8] the molecule record lists MIC as < 7 µg/mL

====

tested on: methicillin-resistant Staphylococcus aureus (MRSA); assay: Determination of MIC values (BHI broth, 96 well microtiter plate); format: cell-based; details: Staphylococcus aureus, MRSA; BHI broth, overnight 37° C.; read-out: MIC MRSA
measurement.name: MIC

Worked set:
compound	MIC
Clc1cc(-c2c[nH]c3c(Br)cccc23)nc2ccccc12 [Example 346]	< 25 µg/mL
NCc1ccc(CNC(=O)c2cc(-c3c[nH]c4ccc(Br)cc34)nc3ccc(C#CCNCCc4ccc(Cl)cc4)cc23)cc1 [Example 235]	< 7 µg/mL

For COC(=O)c1cc(-c2c[nH]c3ccc(Br)cc23)nc2cc(F)ccc12 [Example 307] the compound record lists MIC as < 7 µg/mL

For COc1cc2c(-c3ccc4cc(Cl)ccc4n3)cn(C)c2cc1OC [Example 222] the compound record lists MIC as > 25 µg/mL

For Cn1cc(-c2cc(C(=O)NCc3ccc(CN)cc3)c3cc(C#CCNCCc4ccc(Cl)cc4)ccc3n2)c2cc(Br)ccc21 [Example 390] the compound record lists MIC as < 25 µg/mL

For Cn1cc(-c2ccc3cc(Cl)ccc3n2)c2c(F)cccc21 [Example 211] the compound record lists MIC as < 25 µg/mL

For O=[N+]([O-])c1ccc2[nH]cc(-c3cc(Cl)c4ccccc4n3)c2c1 [Example 349] the compound record lists MIC as > 25 µg/mL

For NCc1ccc(CNC(=O)c2cc(-c3c[nH]c4ccc(Br)cc34)nc3ccccc23)cc1 [Example 283] the compound record lists MIC as < 7 µg/mL

For Cn1cc(-c2cc(C(=O)NCC3CCC(CN)CC3)c3ccc(F)cc3n2)c2cc(Br)ccc21 (stereo not drawn) [Example 326] the compound record lists MIC as < 7 µg/mL

For Cn1cc(-c2ccc3cc(Cl)ccc3n2)c2ccc(Cl)cc21 [Example 219] the compound record lists MIC as > 25 µg/mL

For NCc1ccc(CNC(=O)c2cc(-c3c[nH]c4ccc(Br)cc34)nc3cc(Cl)c(C#CCN4CCCCC4)cc23)cc1 [Example 268] the compound record lists MIC as < 7 µg/mL

For Cn1cc(-c2cc(C(=O)NCc3ccc(CN)cc3)c3cc(C#CCN4CCCCC4)ccc3n2)c2cc(Br)ccc21 [Example 376] the compound record lists MIC as < 25 µg/mL

For NCc1ccc(CNC(=O)c2cc(-c3c[nH]c4ccc(Br)cc34)nc3cc(C#CCN4CCCCC4)ccc23)cc1 [Example 262] the compound record lists MIC as < 7 µg/mL

For Brc1ccc2[nH]cc(-c3ccc4cc(I)ccc4n3)c2c1 [Example 363] the compound record lists MIC as < 7 µg/mL

For NCCNC(=O)c1cc(-c2c[nH]c3ccc(Cl)cc23)nc2cc(Br)ccc12 [Example 312] the compound record lists MIC as < 7 µg/mL

====

Let's look at some molecules and their measured MIC.
system: Streptococcus pneumoniae; assay: Determination of MIC values (BHI broth, 96 well microtiter plate); assay type: cell-based; details: Streptococcus pneumoniae; S. pneu; BHI broth, overnight 37° C.; read-out: MIC S. pneu

Worked set:
molecule	tested.system	measurement.name	recorded.result
COC(=O)c1cc(-c2c[nH]c3ccc(Br)cc23)nc2cc(F)ccc12	Streptococcus pneumoniae	MIC	< 7 µg/mL
NCc1cccc(CNC(=O)c2cc(-c3c[nH]c4ccc(Br)cc34)nc3c(Cl)c(Cl)ccc23)c1	Streptococcus pneumoniae	MIC	> 25 µg/mL
NCc1ccc(CNC(=O)c2cc(-c3c[nH]c4ccc(Br)cc34)nc3cc(I)ccc23)cc1	Streptococcus pneumoniae	MIC	< 7 µg/mL
Cn1cc(-c2cc(C(=O)NCc3cccc(CN)c3)c3cc(I)ccc3n2)c2cc(Br)ccc21	Streptococcus pneumoniae	MIC	< 7 µg/mL

For NCc1ccc(CNC(=O)c2cc(-c3c[nH]c4ccc(Br)cc34)nc3cc(Cl)c(C#CCNCCc4ccc(Cl)cc4)cc23)cc1 the molecule record lists MIC as < 7 µg/mL

For NCc1cccc(CNC(=O)c2cc(-c3c[nH]c4ccc(Br)cc34)nc3ccc(C#CCN4CCCC4)cc23)c1 the molecule record lists MIC as < 7 µg/mL

====

tested on: Streptococcus pneumoniae; test: Determination of MIC values (BHI broth, 96 well microtiter plate); assay type: cell-based; details: Streptococcus pneumoniae; S. pneu; BHI broth, overnight 37° C.; read-out: MIC S. pneu
measurement.name: MIC

For NCC1CCC(CNC(=O)c2cc(-c3c[nH]c4ccc(Br)cc34)nc3cc(I)ccc23)CC1 (stereo not shown) the compound record lists MIC as < 7 µg/mL

For Clc1ccc2nc(-c3c[nH]c4cccc(Cl)c34)ccc2c1 the compound record lists MIC as < 7 µg/mL

For Cn1cc(-c2cc(C(=O)NCc3ccc(CN)cc3)c3cc(C#CCNCCc4ccccc4)ccc3n2)c2cc(Br)ccc21 the compound record lists MIC as < 25 µg/mL

For NCc1ccc(CNC(=O)c2cc(-c3c[nH]c4ccc(Br)cc34)nc3ccc(C#CCN4CCSCC4)cc23)cc1 the compound record lists MIC as > 25 µg/mL

====

assay: Acute in vivo toxicity in mice, intraperitoneal injection; conditions: 120 mg/kg intraperitoneal, in 10% w/v hydroxypropyl-β-cyclodextrin in 0.9% w/v saline, 5 mice
Let's look at some compounds and their measured Mice Surviving on Day 7.
Reply with just the number (in %).

Worked set:
chemical.string	value.units	recorded.result
Fc1ccc2c(-c3cc(Cl)c4ccc(Cl)cc4n3)c[nH]c2c1	%	100
Cn1cc(-c2cc(C(=O)NCCN)c3cc(C#CCN4CCCCC4)c(Cl)cc3n2)c2cc(Br)ccc21	%	0
OCc1cc(-c2c[nH]c3ccc(Br)cc23)nc2cc(F)ccc12	%	80
COc1ccc2nc(-c3c[nH]c4ccc(Cl)cc34)ccc2c1	%	100
NCCNC(=O)c1cc(-c2c[nH]c3ccc(Br)cc23)nc2ccc(C#CCN3CCCCC3)cc12	%	0

Kindly consider the entry below.
For Cn1cc(-c2cc(C(=O)NCCN)c3cc(C#CCN4CCCCC4)ccc3n2)c2cc(Br)ccc21 the compound record lists Mice Surviving on Day 7 as 0

====

Test system: methicillin-resistant Staphylococcus aureus (MRSA)
Assay: Determination of MIC values (BHI broth, 96 well microtiter plate)
Format: cell-based
Conditions: Staphylococcus aureus, MRSA; BHI broth, overnight 37° C.; read-out: MIC MRSA
Procedure: Stock solutions of compounds are prepared with a concentration of 10 mg/mL. These solutions are then diluted 1:4 to give a concentration of 2.5 mg/mL. The compounds are then serially diluted 1:2 for 6 iterations. The concentrations made for each compound are 2.5, 1.25, 0.625, 0.3125, 0.156, 0.078, and 0.039 mg/mL. A control sample (no compound) is run along with each compound tested. All dilutions are made in DMSO. […]
measurement.name: MIC

Worked set:
compound	MIC
NCc1ccc(CNC(=O)c2cc(-c3c[nH]c4ccc(Br)cc34)nc3cc(F)ccc23)cc1	< 7 µg/mL
NCc1ccc(CNC(=O)c2cc(-c3c[nH]c4ccc(Br)cc34)nc3ccc(C#CCN4CC=CCC4)cc23)cc1	< 7 µg/mL
Cn1cc(-c2ccc3cc(Cl)ccc3n2)c2cc([N+](=O)[O-])ccc21	< 7 µg/mL
NCc1ccc(CNC(=O)c2cc(-c3c[nH]c4ccc(Br)cc34)nc3c(Cl)c(Cl)ccc23)cc1	< 7 µg/mL
COc1ccc2c(c1)c(-c1ccc3cc(Cl)ccc3n1)cn2C	< 25 µg/mL
NCc1ccc(CNC(=O)c2cc(-c3c[nH]c4ccc(Br)cc34)nc3cc(C#CCN4CCSCC4)ccc23)cc1	< 25 µg/mL
Clc1ccc2nc(-c3c[nH]c4ccc(Cl)cc34)ccc2c1	< 7 µg/mL
O=[N+]([O-])c1cccc2nc(-c3c[nH]c4ccc(Br)cc34)ccc12	> 25 µg/mL

Kindly consider the entry below.
For CC(C)N(CC#Cc1ccc2nc(-c3cn(C)c4ccc(Br)cc34)cc(C(=O)NCc3ccc(CN)cc3)c2c1)C(C)C the compound record lists MIC as < 7 µg/mL
